Experiment: melting temperature; fluorescence melt of hairpins on a sequencing array, two-state fit, raised by 9.35 °C to match UV melts
Conditions: sodium 0.088 M
Listed next: entries and their corresponding Tm.
Please give a number only; it is taken to be in °C.

Illustrative cases are given below, each with its answer.
| sequence.text | result.unit | Tm |
| --- | --- | --- |
| GACTTTGGAAACAAGGTC (((.(((....))).))) | °C | 41.8 |
| GATCACCGATGTGATC ((((((....)))))) | °C | 54.6 |

## Input Look at this sequence and give its reported Tm. GGAAGTGGAAACGCTTCC (((((.(....).)))))
## Output 50.8

## Input Now the same for GGCGAACGAAAGTTAGCC (((.(((....))).)))
## Output 59.8

## Input Now the same for GCTGGGCGAAAGCGGAGC (((..((....))..)))
## Output 44.1
